Would you kindly list IC50 for each of these compounds?
- System tested: GST-tagged human ROCK1 catalytic domain 1-477 (Homo sapiens (Human), UniProt Q13464)
- Sequence (Q13464 1-477): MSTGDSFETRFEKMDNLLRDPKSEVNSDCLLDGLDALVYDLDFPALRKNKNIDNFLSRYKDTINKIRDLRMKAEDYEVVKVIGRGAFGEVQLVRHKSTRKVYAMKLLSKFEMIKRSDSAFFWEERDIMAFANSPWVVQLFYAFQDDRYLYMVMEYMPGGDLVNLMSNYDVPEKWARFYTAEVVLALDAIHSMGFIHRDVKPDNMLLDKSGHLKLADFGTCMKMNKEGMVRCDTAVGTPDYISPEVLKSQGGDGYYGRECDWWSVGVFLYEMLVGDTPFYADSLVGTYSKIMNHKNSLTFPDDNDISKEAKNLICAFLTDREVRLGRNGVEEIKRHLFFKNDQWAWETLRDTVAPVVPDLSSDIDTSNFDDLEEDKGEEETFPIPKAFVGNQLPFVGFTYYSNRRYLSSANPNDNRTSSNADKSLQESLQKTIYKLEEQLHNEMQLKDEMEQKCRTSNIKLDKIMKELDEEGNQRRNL
- Protocol notes: Inhibition of Rho-associated protein kinase isoform 1 (LANCE Ultra ULight-CREBtide FRET kinase assay)
- Type: biochemical
- Setup conditions: 30 μM was the highest concentration analyzed

Inquiry: So what does the record say about IC50 for CC(=O)Nc1cc(F)c(F)c(-c2nnc(Nc3ccc4[nH]ncc4c3Cl)s2)c1.O=C(O)C(F)(F)F [Example 35BB] ?
Reply text: > 30 µM

Inquiry: Consider the compound Clc1c(Nc2nnc(-c3cccc(-c4nnn[nH]4)c3)s2)ccc2[nH]ncc12 [Example 41D] and give its measured IC50.
Reply text: < 1 µM

Inquiry: Consider the compound shown here: NC1CCN(C(=O)Nc2cccc(-c3nnc(Nc4ccc5[nH]ncc5c4)s3)c2)C1 (centres unmarked) [Example A-35] What is its recorded IC50?
Reply text: 1 to 15 µM

Inquiry: Could you share which IC50 value was measured for CCc1cn2cccc(-c3nnc(Nc4ccc5[nH]nc(C)c5c4)s3)c2n1 [Example 50A] ?
Reply text: 1 to 15 µM

Inquiry: Suppose we examine the compound CN(c1nnc(-c2cccc(NC(=O)Cc3ccc(F)cc3)c2)s1)c1ccc2[nH]ncc2c1Cl [Example 75U] ; what IC50 value has been reported?
Reply text: > 30 µM

Inquiry: If you can, please state the reported IC50 value of O=C1Cc2c(cccc2-c2nnc(Nc3ccc4[nH]ncc4c3Cl)s2)N1 [Example 56D] .
Reply text: > 30 µM

Inquiry: // returns reported IC50 for input COc1ncc(C(=O)Nc2cccc(-c3nnc(Nc4ccc5[nH]ncc5c4Cl)s3)c2)cn1.O=C(O)C(F)(F)F [Example 35AU]
Reply text: > 30 µM

Inquiry: Could you tell me which IC50 is on file for Clc1c(Nc2nnc(-c3cccn4cc(C5CCCN5)nc34)s2)ccc2[nH]ncc12 (centres unmarked) [Example 50G] ?
Reply text: < 1 µM

Inquiry: May I ask what IC50 has been recorded for Nc1cncc(-c2nnc(Nc3ccc4[nH]ncc4c3)s2)c1 [Example A-24] ?
Reply text: < 1 µM

Inquiry: Using the record for CC1(C)CN=C(c2cccc(-c3nnc(Nc4ccc5[nH]ncc5c4Cl)s3)c2)O1 [Example 75Q] , report its IC50.
Reply text: 1 to 15 µM

Inquiry: Tell me the measured IC50 of c1cc(-c2nnc(Nc3ccc4[nH]ncc4c3)s2)c2nccn2c1 [Example 49] , please.
Reply text: < 1 µM

Inquiry: Recorded IC50 of Nc1nc(-c2nnc(Nc3ccc4[nH]ncc4c3Cl)s2)c[nH]1 [Example 75W] , please.
Reply text: < 1 µM

Inquiry: For Cn1nccc1C(=O)Nc1cccc(-c2nnc(Nc3ccc4[nH]ncc4c3)s2)c1 [Example A-43] , what is its reported IC50?
Reply text: > 30 µM

Inquiry: // IC50 lookup, key: CCc1c(Nc2nnc(-c3cccc(NC(C)=O)c3)s2)ccc2[nH]ncc12 [Example 75C]
Reply text: < 1 µM

Inquiry: Which IC50 reading was recorded for the compound CC(C)c1cn2cccc(-c3nnc(Nc4ccc5[nH]ncc5c4Cl)s3)c2n1 [Example 52B] ?
Reply text: < 1 µM

Inquiry: State the recorded IC50 for this entry: Cn1cc(C(=O)Nc2cccc(-c3nnc(Nc4ccc5[nH]nc(Cl)c5c4)s3)c2)cn1 [Example 75J]
Reply text: > 30 µM

Inquiry: # input compound: O=C(Nc1cccc(-c2nnc(Nc3ccc4[nH]ncc4c3)s2)c1)c1cnn(CC(O)CO)c1 (centres unmarked) [Example 35CG] ; wanted: its IC50
Reply text: < 1 µM

meta.source: patent US10112935B2
